From: PubChem BioAssay (NCI)

assay: NCI Yeast Anticancer Drug Screen. Data for the mec2-1 strain (AID 157); details: S. cerevisiae mec2-1 strain, at 50.0 µM
This is part of a sample that, as a whole, favours compounds with a hit. Of some 79,000 tested, about 15% had one in any assay. Activity calls are given as the source filed them. Cut-off read from the data, not from the text of the source: active = growth inhibition above about 70%; inactive = the rest.
The reply should be one of these categories: TRUE = active, FALSE = inactive

Example results:
molecule	label value
CC(=O)OCN(C)N=Nc1ccc(C(C)=O)cc1	FALSE
CCOC(=O)CCc1nc2ccccc2[nH]1	FALSE
CC(C)(C)c1ccc(C(=O)NCSCC(NC(=O)CCC(N)C(=O)O)C(=O)NCC(=O)O)cc1 (stereo unspecified)	FALSE

Which result was noted for this molecule in the test: COc1nc2c(c(=O)n1C)N(C(C)=O)C1C(N2)OCC(OC(C)=O)C1OC(C)=O (stereo unspecified)
FALSE

Which result was noted for this molecule in the test: CC(NC(=O)C1CCCN1C(=O)OCc1ccccc1)C(=O)O (stereo unspecified)
FALSE

Which result was noted for this molecule in the test: CC1c2[nH]c3ccccc3c2CC1C(=O)O (stereo unspecified)
FALSE

Which result was noted for this molecule in the test: C=CC(=N)N
FALSE

Which result was noted for this molecule in the test: Cc1ccc(S(=O)(=O)N2CCSCCSCCSCCN(S(=O)(=O)c3ccc(C)cc3)CC2)cc1
FALSE

Which result was noted for this molecule in the test: CCOC(=O)C(Cl)C(C)(O)c1ccccc1 (stereo unspecified)
FALSE

Which result was noted for this molecule in the test: COc1ccc2ccccc2c1C1OC(=O)c2ccccc21 (stereo unspecified)
FALSE

Which result was noted for this molecule in the test: CC(=O)ONc1nc(C)c(CCC2OCCO2)c(SC(=N)N)n1
FALSE

Which result was noted for this molecule in the test: NC(=O)c1ccc2c(ccc3ccccc32)c1
FALSE

Which result was noted for this molecule in the test: COc1ccccc1N1C(=O)C2c3[nH]c4ccccc4c3C3CCC(C(C)(C)C)CC3C2C1=O (stereo unspecified)
FALSE

Which result was noted for this molecule in the test: CC(C=O)C1CCCCC1 (stereo unspecified)
FALSE

Which result was noted for this molecule in the test: CCCCCOc1ccc(C(=O)OC)cc1
FALSE

Which result was noted for this molecule in the test: Nc1nc(N)c2c(Cl)c(CNc3ccc(C(=O)NC(CC(=O)O)CC(=O)O)cc3)ccc2n1
FALSE

Which result was noted for this molecule in the test: COc1ccc(C=C(c2ccc(OCc3ccccc3)cc2)c2ccc(OCc3ccccc3)cc2)cc1
FALSE

Which result was noted for this molecule in the test: S=C1Cc2c([nH]c3ccccc23)-c2ccccc2N1
FALSE

Which result was noted for this molecule in the test: O=C1c2ccccc2C(=O)c2cc(N=Nc3c(O)ccc4ccccc34)ccc21
FALSE

Which result was noted for this molecule in the test: COc1ccc(S(=O)(=O)O)cc1N
FALSE

---

assay: NCI Yeast Anticancer Drug Screen. Data for the cln2 rad14 strain (AID 165);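 note: 0% = growth equal to vehicle treated cultures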; details: S. cerevisiae cln2 rad14 strain, at 50.0 µM, active compounds read high
The panel holds about 79,000 compounds, 15% with a hit somewhere; the sample as a whole holds those more often.
measurement name: growth inhibition (%)
Report as a plain number; the unit % is understood.

compound	growth inhibition [%]
CC1CCc2ccccc2N1C(=O)c1cccc([N+](=O)[O-])c1C(=O)O (stereo not drawn)	-11.6

So what does the record say about growth inhibition for CNCCC(Oc1ccccc1OC)c1ccccc1 (stereo not drawn) ?
10.8

So what does the record say about growth inhibition for CCOC(=O)c1[nH]c(CC(=O)O)c(C(=O)OC)c1C ?
-3.5

So what does the record say about growth inhibition for COc1cc(/C=N/NC(=O)N/N=C/c2cc(OC)c(OC)c(OC)c2)cc(OC)c1OC ?
10.9

So what does the record say about growth inhibition for CC(C)(C)n1c(=O)n(C(=O)C(Cl)(Cl)Cl)n(C(=O)C(Cl)(Cl)Cl)c1=O ?
19.1

So what does the record say about growth inhibition for C[C@@]12CCC[C@H]1[C@@H]1CCC3=CC(=O)CC[C@]3(C)[C@H]1CC2 ?
-27.1

So what does the record say about growth inhibition for CC1=C(C(=O)CC(=O)C(=O)Nc2cccc(C)c2C)Sc2ccccc2N1 ?
-1.9

So what does the record say about growth inhibition for C/C=C/[C@@]1(OC(=O)c2ccccc2)C[C@@H]2CCCC[C@@H]21 ?
23.3

So what does the record say about growth inhibition for CCC(=O)Nc1ccccc1-c1ccccc1 ?
7.6

So what does the record say about growth inhibition for CCOC(=O)/C(C#N)=C(\CC)c1ccccc1 ?
-0.15

So what does the record say about growth inhibition for CC1(CBr)COC(c2ccccc2)(C2CCCCC2)OC1 (stereo not drawn) ?
-1.9

---

assay: NCI Yeast Anticancer Drug Screen. Data for the bub3 strain (AID 167); conditions: S. cerevisiae bub3 mutant strain, at 50.0 µM, active compounds read high
The panel holds about 79,000 compounds, 15% with a hit somewhere; the sample as a whole holds those more often.
growth inhibition by entry:
Report as a plain number; the unit % is understood.

compound	growth inhibition (%)
COc1cc2c(C)nc3c4cc5c(cc4ccc3c2cc1OC)OCO5	40.2
NC(CCCCC1CCCCC1)C(=O)O (configuration not stated)	-28.4
CC(C)CCC(=O)OC/C(=N\Nc1ccc([N+](=O)[O-])cc1[N+](=O)[O-])c1ccc(-c2ccccc2)cc1	1.9
COc1cc2c(c3c1c(=S)c1ccccc1n3C)C=CC(C)(C)O2	82.7

So what does the record say about growth inhibition for Nc1ncnc2c1ncn2C1CCC(COS(N)(=O)=O)C1 (configuration not stated) ?
4.2

So what does the record say about growth inhibition for C[C@H](N)C(=O)/C=C/c1ccccc1 ?
8.8

So what does the record say about growth inhibition for CCC(C)CN1C(=O)NC(C)(Cc2ccccc2)C1=O (configuration not stated) ?
7.85

So what does the record say about growth inhibition for C=CCC1(/C(=C\CC)CCC)C(=O)NC(=O)N=C1N (configuration not stated) ?
-11.2

So what does the record say about growth inhibition for Cc1ccc(NC2C=C(c3ccccc3)Oc3ccccc32)c(C)c1 (configuration not stated) ?
14.1

So what does the record say about growth inhibition for O=C(O)C(O)C(O)C(O)C(O)C(=O)O.[NH-]C1CCCCC1[NH-].[Pt+2] (configuration not stated) ?
8.25

So what does the record say about growth inhibition for CN1CCCC1c1cccnc1.O=C(O)c1ccccc1O.O=C([O-])c1ccccc1[OH2+].O=C([O-])c1ccccc1[OH2+].[Mn+2] (configuration not stated) ?
-29

So what does the record say about growth inhibition for O=[N+]([O-])c1cccc(C2OCC3(CO2)COC(c2cccc([N+](=O)[O-])c2)OC3)c1 (configuration not stated) ?
-3.1

So what does the record say about growth inhibition for CC(=O)OC(C(=O)O)C(OC(C)=O)C(OC(C)=O)C(=O)O (configuration not stated) ?
5.7

So what does the record say about growth inhibition for Nc1ccc(-c2c[nH]c(=O)c([N+](=O)[O-])c2)cc1 ?
3.5

So what does the record say about growth inhibition for O=c1c(O)c(-c2cc(O)c(O)c(O)c2)oc2cc(O)ccc12 ?
-32.8

So what does the record say about growth inhibition for C/C(CC(=O)Nc1ccc(C)c(C)c1)=N\N(c1ccccc1)c1ccccc1 ?
-17.6

So what does the record say about growth inhibition for O=C(Cc1cc[n+]([O-])cc1)C(=O)Nc1cc(Cl)c(Cl)cc1Cl ?
-17.8

So what does the record say about growth inhibition for CN=NNc1ccccc1 ?
14.8

---

assay: NCI Yeast Anticancer Drug Screen. Data for the rad50 strain (AID 155);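 note: 0% = growth of vehicle-only cultures of the same strain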; settings: S. cerevisiae rad50 strain growth inhibition; at 50.0 µM; active compounds read high
Compounds without any hit were thinned out: in the full panel of roughly 79,000, 15% have a hit.
growth inhibition by entry:
Report as a plain number; the unit % is understood.

Consider the worked cases shown below.
compound	growth inhibition, %
S=C(c1ccccc1Cl)N1CCOCC1	18.2
CCCCc1c(O)c(N=NC(=O)C[N+](C)(C)C)c2ccccc2c1O	31.5
COc1ccc(Cl)cc1NC(=O)Nc1cc(C)ccc1Cl	-8.35
CC12CCC(C(Br)C1=O)C2(C)CBr (centres undefined)	-9.8

So what does the record say about growth inhibition for COc1cc2cc(c1Cl)NC(=O)/C=C/[C@]1(C)O[C@H]1[C@H](C)[C@@H]1C[C@@](O)(NC(=O)O1)[C@H](OC)C=C/C=C(\C)C2 ?
20.2

So what does the record say about growth inhibition for CC(O)c1cccc(NC(=O)NC(C)(C)C)c1 (centres undefined) ?
0.6

---

assay: NCI Yeast Anticancer Drug Screen. Data for the mlh1 rad18 strain (AID 175); details: S. cerevisiae mlh1 rad18 strain growth inhibition; at 50.0 µM; active compounds read high
About 79,000 compounds went through this panel and 15% of them were active in at least one assay; those are over-represented in the sample as a whole.
measurement name: growth inhibition (%)
Report as a plain number; the unit % is understood.

Consider the worked cases shown below.
molecule	growth inhibition / %
CC(=O)OCC(OC(C)=O)C(OC(C)=O)C(/C=C/N=[N+]([O-])c1ccccc1)OC(C)=O (stereo unspecified)	44.9
CC(C)(C)NC(=O)Oc1ccc(-c2ccccc2)cc1	32.9
CC(CC(O)CCCN(C)C)CC(C)(C)C (stereo unspecified)	37.5
Cc1ccc([N+](=O)[O-])cc1NC(=O)C(=O)Cc1occc(=O)c1O	-6.95

So what does the record say about growth inhibition for CC1OC(C)(c2ccccc2)OC1C (stereo unspecified) ?
41.7

So what does the record say about growth inhibition for COC(=O)NC1(NC(=O)OC)NC(=O)c2cc(OC)c(OC)c(OC)c2N1 ?
3.85
